Hello, the source for this data is PubChem BioAssay (NCI), in case you need it.

# Measurement description: NCI Yeast Anticancer Drug Screen. Data for the rad14 strain (AID 159);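 also: 0% = growth of vehicle-treated control cultures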
# Cond: S. cerevisiae rad14 strain growth inhibition; at 33.0 µM
The panel holds about 79,000 compounds, 15% with a hit somewhere; the sample as a whole holds those more often. Active and inactive are the calls of the source. Rule as the data show it: active = growth inhibition above about 70%; inactive = the rest.
Please state which outcome applies, choosing from active, inactive

{"Molecule": "CC[N+]1(C)CCC(O)(/C=C/c2ccc(Cl)c(Cl)c2)C(C(=O)/C=C/c2ccc(Cl)c(Cl)c2)C1 (stereo not given)", "Class assignment": "active"}
{"Molecule": "O=C1c2ccccc2C(=O)C1C(c1ccc(F)cc1)C1C(=O)c2ccccc2C1=O", "Class assignment": "inactive"}
{"Molecule": "CC(C)c1ccc(C2NC(=S)NC3=C2c2ccccc2C3=O)cc1 (stereo not given)", "Class assignment": "inactive"}
{"Molecule": "O=C(O)CN(CCNC(=O)OCC1c2ccccc2-c2ccccc21)CCNC(=O)OCC1c2ccccc2-c2ccccc21", "Class assignment": "active"}
{"Molecule": "c1cc2ccc3cc4ncccc4c4ccc(c1)c2c34", "Class assignment": "inactive"}

Per the assay record, what outcome was assigned to NCC(O)CSCc1ccc(Cl)cc1 (stereo not given) ?
inactive

Moving on to the next molecule: O=C1c2ccccc2-c2ccc(NC(=O)C3CCCCC3C(=O)O)cc21 (stereo not given)
inactive

Moving on to the next molecule: `Cc1cccc[c]1[Sn]([Cl])([S]/C(C#N)=N/N=C/c1ccc(N(C)C)cc1)[c]1ccccc1C`
inactive

Moving on to the next molecule: CC(O)CN1C(=O)c2cccc3cc([N+](=O)[O-])cc(c23)C1=O (stereo not given)
inactive

Moving on to the next molecule: c1ccc(N/N=C2\CC(c3ccccc3)Oc3ccccc32)cc1 (stereo not given)
inactive

----------
# Measurement description: NCI Yeast Anticancer Drug Screen. Data for the rad50EPP+ strain (AID 151);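 also: 0% = growth of vehicle-treated control cultures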
# Cond: S. cerevisiae rad50 mutant strain, at 100.0 µM, stronger effect = higher value
This is part of a sample that, as a whole, favours compounds with a hit. Of some 79,000 tested, about 15% had one in any assay.
Short version: growth inhibition at least 80% is met, less is not met.

Completed entries (count: 8):
{"Compound smiles": "CC(=O)c1ccc(NCN2C(=O)c3ccccc3C2=O)cc1", "Class assignment": "met"}
{"Compound smiles": "Cc1ccc(C(C)C)c(C(=C2C=CC(=[N+](C)C)C=C2)c2c(C(C)C)ccc(C)c2O)c1O", "Class assignment": "not met"}
{"Compound smiles": "O=C(O)[C@H]1[C@@H](C2CCCCC2)O[C@@H](C2CCCCC2)O[C@H]1C(F)(F)F", "Class assignment": "not met"}
{"Compound smiles": "[O-]c1c2cc(-[n+]3c(-c4ccccc4)cc(-c4ccccc4)cc3-c3ccccc3)cc1COCCOCCOCCOCCOC2", "Class assignment": "not met"}
{"Compound smiles": "Cc1cccc[c]1[Sn]([Cl])([S]/C(C#N)=N/N=C/c1ccc(N(C)C)cc1)[c]1ccccc1C", "Class assignment": "not met"}
{"Compound smiles": "C[n+]1c(-c2ccc(NC(=O)c3ccc(C(=O)Nc4ccc(-c5cn6ccccc6[n+]5C)cc4)cc3)cc2)cn2ccccc21", "Class assignment": "met"}
{"Compound smiles": "C[Si](C)(C)Cc1ccccc1C(=O)O", "Class assignment": "not met"}
{"Compound smiles": "CCOc1ccc2ccc3cccnc3c2n1", "Class assignment": "met"}

Kindly consider the entry below.
In plain terms: is recorded growth inhibition at least 80% for `COc1ccc2nc(N/N=C/c3sccc3C)cc(C)c2c1` ?
not met

----------
# Measurement description: NCI Yeast Anticancer Drug Screen. Data for the bub3 strain (AID 167)
# Cond: S. cerevisiae bub3 mutant strain, at 5.0 µM (retest, dose inferred, filed as 0.5), stronger effect = higher value
This is part of a sample that, as a whole, favours compounds with a hit. Of some 79,000 tested, about 15% had one in any assay.
Overview of reported growth inhibition across a group of molecules:
Kindly provide the numeric value in % only, without the unit symbol.

{"Molecule": "CCOC(=O)c1[nH]c2cccc3c2c1CC(Br)C3=O (centres undefined)", "Result units": "%", "growth inhibition": 56}
{"Molecule": "CCc1nc2ccc(N=Nc3c(O)ccc4ccccc34)cc2[nH]1", "Result units": "%", "growth inhibition": -9}
{"Molecule": "O=C1C(C(O)(C(F)(F)F)C(F)(F)F)CCC1C(O)(C(F)(F)F)C(F)(F)F (centres undefined)", "Result units": "%", "growth inhibition": -12}
{"Molecule": "CCC(C)C(=O)OCC(=O)c1ccc(-c2ccccc2)cc1 (centres undefined)", "Result units": "%", "growth inhibition": 54}
{"Molecule": "C[Si](C)(C)Cc1ccccc1C(=O)O", "Result units": "%", "growth inhibition": 5}

Would you mind telling me what growth inhibition value was observed for `O=c1c(Br)cc2c(-c3ccccc3)c3cc(Br)c(O)c(Br)c3oc-2c1Br` ?
6

Moving on to the next molecule: `CCCCCC(=O)C(C)(c1nc2n(c1O)/C(=N/C(=O)Nc1ccc(Cl)cc1)N=N2)c1nc2n(c1O)/C(=N/C(=O)Nc1ccc(Cl)cc1)N=N2`
-42

Moving on to the next molecule: `CN1CCN(c2ccc3nc(-c4ccc5nc(-c6ccc(O)cc6)[nH]c5c4)[nH]c3c2)CC1`
84

----------
# Measurement description: NCI Yeast Anticancer Drug Screen. Data for the sgs1 mgt1 strain (AID 161);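 also: 0% = growth of cultures given vehicle only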
# Cond: S. cerevisiae sgs1 mgt1 strain, at 50.0 µM (retest, dose inferred, filed as 5.0)
About 79,000 compounds went through this panel and 15% of them were active in at least one assay; those are over-represented in the sample as a whole. Activity calls are given as the source filed them. Rule as the data show it: active = growth inhibition above about 70%; inactive = the rest.
Please state which outcome applies, choosing from active, inactive

Completed entries (count: 10):
{"Compound": "O=C(/C(=C/c1ccccc1)CBr)c1ccccc1", "Class assignment": "active"}
{"Compound": "O=C1C(Br)=CC(Br)(Br)C=C1Br", "Class assignment": "active"}
{"Compound": "CC(C)(C(=O)NN)c1ccccc1", "Class assignment": "active"}
{"Compound": "Cc1ccc(N(C=O)c2c([N+](=O)[O-])cc([N+](=O)[O-])c3c2=[N+]([O-])CN=3)cc1", "Class assignment": "active"}
{"Compound": "Cc1c(N=Nc2ccc(Cl)cc2)c(C)n(C2OC(CO)C(O)C(O)C2O)c(=S)c1C#N (stereo not drawn)", "Class assignment": "inactive"}
{"Compound": "CN(C)CCC(=O)c1c[nH]c2ccccc12", "Class assignment": "inactive"}
{"Compound": "Cc1cccc(N2CCN(C(=O)/C(=C/c3ccccc3)NC(=O)c3ccccc3)CC2)c1", "Class assignment": "inactive"}
{"Compound": "Cc1ccc(S(=O)(=O)N/N=C/c2c(O)ccc3ccccc23)cc1", "Class assignment": "active"}
{"Compound": "Nc1ccc2cc(Br)c3ccccc3c2c1", "Class assignment": "inactive"}
{"Compound": "Oc1ccc(Br)cc1C=Nc1cccc(C(F)(F)F)c1", "Class assignment": "inactive"}

Per the assay record, what outcome was assigned to `CCOC(=O)C1=C(C)NC(C)=C(C(=O)OCC)C1c1ccc(Cl)cc1` ?
active

Moving on to the next compound: `O=C(N/N=C/c1ccc2c(c1)CCC2)c1ccccc1[N+](=O)[O-]`
inactive

Moving on to the next compound: `Cc1cc(NCCCN(C)C)c2ccc3c(ccc4c(NCCCN(C)C)cc(C)nc43)c2n1`
active

Moving on to the next compound: `CC(=O)CC[N+](C)(C)C`
inactive

Moving on to the next compound: OC(c1ccc(Br)cc1)(c1cccs1)C1CC1 (stereo not drawn)
active

Moving on to the next compound: `C[Si](C)(C)Cc1ccccc1C(=O)O`
inactive

Moving on to the next compound: `CCOC(=O)C1=C(C)NC(C)=C(C(=O)OCC)C1c1cccc([N+](=O)[O-])c1`
inactive

Moving on to the next compound: `c1cc(Nc2ccc3c(c2)OCO3)c2cc(C3CCCCC3)ccc2n1`
inactive

----------
# Measurement description: NCI Yeast Anticancer Drug Screen. Data for the wt1 strain (AID 149);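 also: 0% = growth of vehicle-treated wt1 cultures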
# Cond: S. cerevisiae wt1 strain (SPY 50644) growth inhibition; at 100.0 µM
Compounds without any hit were thinned out: in the full panel of roughly 79,000, 15% have a hit. The source made the active and inactive calls. Rule as the data show it: active = growth inhibition above about 70%; inactive = the rest.
Please state which outcome applies, choosing from label 1 = active, label 0 = inactive

Completed entries (count: 5):
{"Compound": "Cc1ccc2oc(-c3cccc(N)c3)nc2c1", "Class assignment": "label 0"}
{"Compound": "Clc1ccc(C(c2ccc(Cl)cc2)N2CCNCC2)cc1", "Class assignment": "label 1"}
{"Compound": "CCOC(=O)C1=C(C)NC(C)=C(C(=O)OCC)C1c1ccc(Cl)cc1", "Class assignment": "label 1"}
{"Compound": "Cc1cccc[c]1[Sn]([Cl])([S]/C(C#N)=N/N=C/c1ccc(N(C)C)cc1)[c]1ccccc1C", "Class assignment": "label 0"}
{"Compound": "O=C1c2ccccc2C(=O)C1C(c1ccc(F)cc1)C1C(=O)c2ccccc2C1=O", "Class assignment": "label 1"}

Per the assay record, what outcome was assigned to CC(O)CN1C(=O)c2cccc3cc([N+](=O)[O-])cc(c23)C1=O (centres undefined) ?
label 0

Moving on to the next compound: CCCCCCC(CCl)c1sc(-c2csc(CCNC(=O)OC(C)(C)C)n2)nc1C(=O)OC (centres undefined)
label 0

Moving on to the next compound: `O=C(CCCN1CCC2(CC1)OC(=O)N(c1ccccc1)C2=O)c1ccccc1`
label 0

Moving on to the next compound: CSc1ccc2c(c1)C(N1CCN(C)CC1)Cc1ccccc1S2 (centres undefined)
label 1

Moving on to the next compound: `CCCCOc1ccc(Nc2c3ccccc3nc3ccccc23)cc1`
label 1
